# IC50 per entry
Target: BRG-1 (Homo sapiens, UniProt P51532)
Sequence (P51532 whole entry): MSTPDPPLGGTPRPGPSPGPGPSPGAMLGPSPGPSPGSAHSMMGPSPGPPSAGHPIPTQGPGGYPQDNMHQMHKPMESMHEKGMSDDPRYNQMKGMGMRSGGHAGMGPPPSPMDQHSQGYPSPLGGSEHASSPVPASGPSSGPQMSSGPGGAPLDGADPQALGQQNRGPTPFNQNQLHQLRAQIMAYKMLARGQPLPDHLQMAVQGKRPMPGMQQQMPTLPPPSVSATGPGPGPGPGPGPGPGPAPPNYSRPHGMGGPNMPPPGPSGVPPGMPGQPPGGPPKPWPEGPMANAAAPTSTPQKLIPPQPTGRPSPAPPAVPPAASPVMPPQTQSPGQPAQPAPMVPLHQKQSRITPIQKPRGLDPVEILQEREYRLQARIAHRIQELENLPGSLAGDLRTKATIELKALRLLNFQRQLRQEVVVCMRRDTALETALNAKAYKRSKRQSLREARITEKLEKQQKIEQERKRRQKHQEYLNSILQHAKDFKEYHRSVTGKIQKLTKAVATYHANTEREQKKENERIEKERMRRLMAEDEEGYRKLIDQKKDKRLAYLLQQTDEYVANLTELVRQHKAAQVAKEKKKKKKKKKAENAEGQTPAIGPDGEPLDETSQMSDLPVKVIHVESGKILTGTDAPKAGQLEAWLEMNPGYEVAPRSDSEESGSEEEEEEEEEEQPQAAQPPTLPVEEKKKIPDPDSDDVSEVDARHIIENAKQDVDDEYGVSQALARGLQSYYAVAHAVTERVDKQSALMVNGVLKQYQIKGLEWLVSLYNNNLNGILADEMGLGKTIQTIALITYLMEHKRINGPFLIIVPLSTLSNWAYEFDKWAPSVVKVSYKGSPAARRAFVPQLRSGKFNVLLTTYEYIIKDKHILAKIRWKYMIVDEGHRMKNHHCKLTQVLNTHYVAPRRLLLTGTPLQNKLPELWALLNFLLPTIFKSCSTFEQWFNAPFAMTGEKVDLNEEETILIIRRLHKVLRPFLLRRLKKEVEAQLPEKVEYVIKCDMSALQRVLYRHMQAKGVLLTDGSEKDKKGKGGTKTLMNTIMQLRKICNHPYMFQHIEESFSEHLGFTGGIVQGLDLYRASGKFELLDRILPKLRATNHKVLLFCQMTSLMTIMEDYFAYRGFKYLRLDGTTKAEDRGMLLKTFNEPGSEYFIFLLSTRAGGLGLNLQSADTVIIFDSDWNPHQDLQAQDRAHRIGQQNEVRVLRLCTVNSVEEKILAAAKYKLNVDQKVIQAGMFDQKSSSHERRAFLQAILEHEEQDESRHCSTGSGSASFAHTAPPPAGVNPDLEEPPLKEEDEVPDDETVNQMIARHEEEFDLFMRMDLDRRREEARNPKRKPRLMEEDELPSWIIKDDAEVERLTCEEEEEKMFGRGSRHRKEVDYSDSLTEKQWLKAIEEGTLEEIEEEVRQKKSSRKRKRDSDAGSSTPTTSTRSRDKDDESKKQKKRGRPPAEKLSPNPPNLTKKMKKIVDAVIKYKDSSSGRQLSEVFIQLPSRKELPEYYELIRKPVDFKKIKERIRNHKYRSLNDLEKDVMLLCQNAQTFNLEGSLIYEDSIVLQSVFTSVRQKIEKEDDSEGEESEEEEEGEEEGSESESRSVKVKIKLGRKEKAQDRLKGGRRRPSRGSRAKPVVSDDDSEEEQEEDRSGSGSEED
Test: ATPase catalytic activity assay (ADP-Glo), BRG-1

Here is how some molecules turned out for IC50.
molecule: C[C@@H]1CN(c2cccc([C@H]3C[C@@H](c4ccnc(CNC(=O)c5ccc6c(c5)[C@](C)(C#N)COC6)c4)C3)n2)C[C@H](C)O1 [Compound 82]
measureName: IC50
endpointResult: > 1000 nM
--
molecule: COCc1cc2c(-c3ccc4cnc(CNC(=O)c5ccc6c(c5)[C@](C)(C#N)COC6)cc4n3)cccc2n1C [Compound 141]
measureName: IC50
endpointResult: 100 to 500 nM

// next entry
Problem: Give the reported IC50 for this molecule. C[C@@H]1CN(c2cccc([C@H]3C[C@H](c4ccnc(CNC(=O)c5ccc6c(c5)[C@](C)(C#N)COC6)c4)C3)n2)C[C@H](C)O1 [Compound 81]
Solution: 100 to 500 nM

###

Molecular target: BRM (Homo sapiens, UniProt P51531)
Sequence (P51531 whole entry): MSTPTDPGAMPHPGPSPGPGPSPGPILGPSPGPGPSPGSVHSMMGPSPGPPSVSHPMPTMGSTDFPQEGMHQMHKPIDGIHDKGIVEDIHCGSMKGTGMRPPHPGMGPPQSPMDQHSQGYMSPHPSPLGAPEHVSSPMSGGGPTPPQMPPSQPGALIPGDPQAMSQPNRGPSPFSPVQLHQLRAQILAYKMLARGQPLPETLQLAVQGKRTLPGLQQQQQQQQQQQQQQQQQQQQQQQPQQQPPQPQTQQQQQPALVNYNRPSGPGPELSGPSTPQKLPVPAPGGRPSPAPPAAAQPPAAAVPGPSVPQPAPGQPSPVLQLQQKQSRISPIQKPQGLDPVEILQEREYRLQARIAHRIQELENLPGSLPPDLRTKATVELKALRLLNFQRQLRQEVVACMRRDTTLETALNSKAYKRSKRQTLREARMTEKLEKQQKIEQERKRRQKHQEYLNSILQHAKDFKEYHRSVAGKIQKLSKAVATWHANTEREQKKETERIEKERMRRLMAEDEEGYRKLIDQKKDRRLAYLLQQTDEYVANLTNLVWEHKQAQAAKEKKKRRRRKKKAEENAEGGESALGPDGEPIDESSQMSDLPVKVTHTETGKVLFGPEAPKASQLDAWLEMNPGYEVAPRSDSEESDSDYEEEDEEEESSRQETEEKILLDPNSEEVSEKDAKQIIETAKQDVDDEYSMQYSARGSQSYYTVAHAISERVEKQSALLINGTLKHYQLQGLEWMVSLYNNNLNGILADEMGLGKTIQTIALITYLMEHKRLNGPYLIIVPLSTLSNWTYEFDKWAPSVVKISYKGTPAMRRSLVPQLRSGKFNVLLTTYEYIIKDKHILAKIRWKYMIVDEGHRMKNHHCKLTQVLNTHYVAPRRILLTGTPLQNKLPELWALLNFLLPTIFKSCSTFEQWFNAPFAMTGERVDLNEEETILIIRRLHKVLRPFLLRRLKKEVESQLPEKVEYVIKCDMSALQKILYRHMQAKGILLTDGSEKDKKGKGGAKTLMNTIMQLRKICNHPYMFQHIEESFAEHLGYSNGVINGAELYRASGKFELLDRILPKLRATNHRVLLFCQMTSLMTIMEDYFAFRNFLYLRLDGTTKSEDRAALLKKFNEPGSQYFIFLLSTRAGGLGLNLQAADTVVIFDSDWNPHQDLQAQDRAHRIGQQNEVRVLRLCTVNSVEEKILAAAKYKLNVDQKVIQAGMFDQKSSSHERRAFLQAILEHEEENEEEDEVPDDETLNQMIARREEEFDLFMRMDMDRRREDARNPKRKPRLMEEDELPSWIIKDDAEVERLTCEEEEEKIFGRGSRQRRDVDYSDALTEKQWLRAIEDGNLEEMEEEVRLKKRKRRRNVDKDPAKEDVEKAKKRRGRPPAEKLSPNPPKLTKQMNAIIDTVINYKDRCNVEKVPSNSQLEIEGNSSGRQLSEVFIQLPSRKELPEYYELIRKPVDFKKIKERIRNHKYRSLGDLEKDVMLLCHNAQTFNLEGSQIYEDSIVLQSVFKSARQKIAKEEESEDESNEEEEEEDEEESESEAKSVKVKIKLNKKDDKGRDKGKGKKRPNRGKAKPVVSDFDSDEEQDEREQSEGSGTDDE
Experiment: ATPase catalytic activity assay (ADP-Glo), BRM
Conditions: 30 nM BRM, 400 μM ATP
Form field: BRM Max % Inhibition (one value per entry).
Use % as the unit, but write only the number.

Please review the entries below; each comes with its answer.
molecule: C[C@@]1(C#N)COCc2ccc(C(=O)NCc3cc4nc(-c5cccc(N6CCC6)n5)ccc4cn3)cc21
BRM Max % Inhibition [%]: 100
--
molecule: Cc1cc(-c2ccc3cnc(CNC(=O)c4ccc5c(c4)[C@](C)(C#N)COC5)cc3n2)n(C)n1
BRM Max % Inhibition [%]: 85
--
molecule: C[C@@]1(C#N)COCc2ccc(C(=O)NCc3cc(N4CCC(F)(c5ccccc5)C4)ccn3)cc21 (stereo partly shown)
BRM Max % Inhibition [%]: 93

Problem: Find the measured BRM Max % Inhibition of C[C@@]1(F)COCc2ccc(C(=O)NCc3cc4nc(-c5cccc(C6(O)CCOCC6)n5)ccc4cn3)cc21 and report it.
Solution: 93

Problem: Respond only with BRM Max % Inhibition recorded for Cn1ccc2nc(-c3ccc4cnc(CNC(=O)c5ccc6c(c5)[C@](C)(C#N)COC6)cc4n3)sc2c1=O
Solution: 96

Problem: Output BRM Max % Inhibition of COc1cc(N2CCOCC2)ccc1-c1ccc2cnc(CNC(=O)c3ccc4c(c3)[C@](C)(C#N)COC4)cc2n1
Solution: 96

Problem: Quickly give me recorded BRM Max % Inhibition for O=C(NCc1cc2nc(-c3cncc(C4CC4)n3)ccc2cn1)c1cc(F)c2c(c1)[C@](F)(C(F)F)COC2
Solution: 100

###

Reported IC50 by item:
Molecular target: BRM (Homo sapiens)
Assay: ATPase catalytic activity assay (ADP-Glo), BRM
Conditions: BRM ATPase: IC50 (uM), 30 nM BRM, 400 μM ATP

Consider the reported IC50 for these compounds:
compound: C[C@@]1(C#N)COCc2ccc(C(=O)NCc3cc4nc(-c5cccc(N6CCC6=O)n5)ccc4cn3)cc21 [Compound 392]
endpointResult: < 0.1 µM

compound: C[C@@]1(C#N)COCc2ncc(C(=O)NCc3cc4nc(-c5ccccc5)ccc4cn3)cc21 [Compound 122]
endpointResult: 0.1 to 0.5 µM

compound: C[C@@]1(F)COCc2ccc(C(=O)NCc3cc4nc(-c5cccc(C6(CO)CC6)n5)ccc4cn3)cc21 [Compound 168]
endpointResult: < 0.1 µM

compound: C[C@@]1(C#N)COCc2ccc(C(=O)NCc3cc(N4CCc5ccccc5C4)ccn3)cc21 [Compound 28]
endpointResult: < 0.1 µM

compound: COc1cnccc1-c1ccc2cnc(CNC(=O)c3ccc4c(c3)[C@](C)(C#N)COC4)cc2n1 [Compound 507]
endpointResult: < 0.1 µM

Problem: State its IC50: C[C@@]1(C#N)COCc2ccc(C(=O)NCc3cc4nc(-c5ccnc(N6CCC6)n5)sc4cn3)cc21 [Compound 348]
Solution: < 0.1 µM

Problem: Supply IC50 value. Item: COC(=O)N1CCC=C(c2ccc3cnc(CNC(=O)c4ccc5c(c4)[C@](C)(F)COC5)cc3n2)C1 [Compound 345]
Solution: 0.1 to 0.5 µM
